PROCEDURE_SUMMARY: Solubility in citric acid/disodium phosphate buffers
RECORDED_CONDITIONS: citric acid/disodium phosphate buffer, pH 5.5, aqueous buffer, thermodynamic from solid
Reported log10 solubility at 30 min values for the following compounds.
Hello, just confirming the data are log10 of solubility at 30 min with units of µg/mL.

In [3]: df
Out[3]:
                            chemical_smiles  measured_value
0  CCCCNc1nc(N)c2nc(O)n(Cc3ccc(N(C)C)nc3)c2n1            1.34
1    CCCCOc1nc(N)c2nc(O)n(Cc3ccc(C)nc3)c2n1            0.70
2  CCCCOc1nc(N)c2nc(O)n(Cc3ccc(N4CCOCC4)nc3)c2n1            0.00
3      CCCCOc1nc(N)c2nc(O)n(Cc3cccnc3C)c2n1            0.78
4          COc1nc(N)c2nc(O)n(Cc3cccnc3)c2n1            1.91
5      CCCCNc1nc(N)c2nc(O)n(Cc3cccnc3C)c2n1            0.90
6       CCCCOc1nc(N)c2nc(O)n(Cc3cccnc3)c2n1            1.30
7       CCCCNc1nc(N)c2nc(O)n(Cc3cccnc3)c2n1            1.65
8       CCCCOc1nc(N)c2nc(O)n(Cc3ccncc3)c2n1            0.60
9   CCCCNc1nc(N)c2nc(O)n(Cc3ccc(OC)nc3)c2n1            0.30

Problem: Request the reported log10 solubility at 30 min associated with CCCCNc1nc(N)c2nc(O)n(Cc3ccncc3)c2n1
Solution: 1.86
